Target: Human recombinant cathepsin V (Homo sapiens (Human), UniProt O60911)
Sequence (O60911 114-334): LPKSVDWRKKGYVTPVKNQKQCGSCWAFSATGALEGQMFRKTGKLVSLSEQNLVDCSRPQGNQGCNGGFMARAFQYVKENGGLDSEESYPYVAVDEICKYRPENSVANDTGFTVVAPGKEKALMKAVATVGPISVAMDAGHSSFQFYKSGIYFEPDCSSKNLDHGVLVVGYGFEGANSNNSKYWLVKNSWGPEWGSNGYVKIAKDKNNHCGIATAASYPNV
Test: In vitro cathepsin Ki inhibition measurements, cathepsin V
Assay type: biochemical
Details: read-out: In vitro Ki (nM) vs Cath V
Method: Stock solutions of substrate or inhibitor were made up to 10 mM in 100% dimethylsulfoxide (DMSO) (Rathburns, Glasgow, U.K.) and diluted as appropriately required. […] The equilibrium inhibition constants (Ki^ss) for each compound were measured under steady-state conditions monitoring enzyme activity as a function of inhibitor concentration. The values were calculated on the assumption of pure competitive behaviour (Cornish-Bowden, A. Fundamentals of enzyme kinetics Portland Press; 1995, 93-128.). […]
// classify(record): look up Ki in ranges range 1: < 700 nM; range 2: ≥ 700 nM and < 2000 nM; range 3: ≥ 2000 nM

O=C(N[C@H](C(=O)N1C[C@H](Cl)[C@H]2OCC(=O)[C@H]21)C1CCCCC1)c1cccc(-n2cnnn2)c1 [Compound 9] : range 1

[in] Kindly state the category for this compound: O=C(N[C@@H](CC1CCCCC1)C(=O)N1CC[C@H]2OCC(=O)[C@H]21)c1ccccc1 [compound (38), reference compound]
[out] range 3

[in] Band for the recorded Ki of O=C(N[C@H](C(=O)N1C[C@H](Cl)[C@H]2OCC(=O)[C@H]21)C1CCCCC1)c1ccccc1 [Compound 3] ?
[out] range 1

[in] Kindly state the category for this compound: O=C(N[C@H](C(=O)N1C[C@@H](Cl)[C@H]2OCC(=O)[C@H]21)C1CCCCC1)c1cccc(-n2ccnc2)c1 [Compound 14]
[out] range 2

[in] Which Ki category applies to C[C@H]1CC[C@H]([C@H](NC(=O)c2cccc(-n3cnnn3)c2)C(=O)N2C[C@H](Cl)[C@H]3OCC(=O)[C@H]32)CC1 [EXAMPLE 2] here?
[out] range 3

[in] Any idea which band O=C(N[C@H](C(=O)N1CC[C@H]2OCC(=O)[C@H]21)C1CCCCC1)c1cccc(-n2cnnn2)c1 [Compound 7] is in?
[out] range 3

[in] Band assignment needed for C[C@H]1CC[C@H]([C@H](NC(=O)c2ccccc2)C(=O)N2C[C@H](Cl)[C@H]3OCC(=O)[C@H]32)CC1 [EXAMPLE 1] please.
[out] range 3

[in] Where would C[C@H]1CC[C@H]([C@H](NC(=O)c2ccccc2)C(=O)N2C[C@@H](Cl)[C@H]3OCC(=O)[C@H]32)CC1 [Compound 6] land among the classes by reported Ki?
[out] range 3

[in] Which of the defined bands does the recorded Ki of C[C@H]1CC[C@H]([C@H](NC(=O)c2ccccc2)C(=O)N2C[C@H](F)[C@H]3OCC(=O)[C@H]32)CC1 [Compound 5] sit within?
[out] range 3

[in] Lab log: O=C(N[C@H](C(=O)N1CC[C@H]2OCC(=O)[C@H]21)C1CCCCC1)c1ccccc1 [Compound 1] — assign Ki category
[out] range 2

[in] // bin(item) where item = C[C@H]1CC[C@H]([C@H](NC(=O)c2cccc(-n3cnnn3)c2)C(=O)N2C[C@@H](Cl)[C@H]3OCC(=O)[C@H]32)CC1 [Compound 12]
[out] range 3

[in] Form field 'band' for C[C@H]1CC[C@H]([C@H](NC(=O)c2cccc(-n3ccnc3)c2)C(=O)N2C[C@H](F)[C@H]3OCC(=O)[C@H]32)CC1 [Compound 15]
[out] range 3

[in] Band for the recorded Ki of O=C(N[C@H](C(=O)N1C[C@H](Cl)[C@H]2OCC(=O)[C@H]21)C1CCCCC1)c1cccc(-n2ccnc2)c1 [Compound 13] ?
[out] range 1

[in] GET /class?item= `C[C@H]1CC[C@H]([C@H](NC(=O)c2cccc(-n3ccnc3)c2)C(=O)N2C[C@H](Cl)[C@H]3OCC(=O)[C@H]32)CC1`
[out] range 3

[in] Band assignment needed for CC1CCC([C@H](NC(=O)c2ccccc2)C(=O)N2CC[C@H]3OCC(=O)[C@H]32)CC1 (some centres unmarked) [Compound 4] please.
[out] range 3

[in] Which class is correct for the following compound? CC1(C)CCC([C@H](NC(=O)c2cccc(-n3cnnn3)c2)C(=O)N2C[C@H](Cl)[C@H]3OCC(=O)[C@H]32)CC1 [EXAMPLE 3]
[out] range 2

[in] Hey, which category is C[C@H]1CC[C@H]([C@H](NC(=O)c2cccc(-n3cnnn3)c2)C(=O)N2C[C@H](F)[C@H]3OCC(=O)[C@H]32)CC1 [Compound 11] in, do you know?
[out] range 3

[in] Hello team, could you let me know which band the following compound falls into: C[C@H]1CC[C@H]([C@H](NC(=O)c2cccc(-n3cnnn3)c2)C(=O)N2CC[C@H]3OCC(=O)[C@H]32)CC1 [Compound 10]
[out] range 3
